Value source: patent US20090099087A1

The following binders are shown together with reported pKi values.
target: human plasmin (human, UniProt P00747 97-810, limits assumed); experiment: chromogenic (S-2251) amidolytic inhibition assay, plasmin 30 nM
Sequence (P00747 97-810 limits assumed): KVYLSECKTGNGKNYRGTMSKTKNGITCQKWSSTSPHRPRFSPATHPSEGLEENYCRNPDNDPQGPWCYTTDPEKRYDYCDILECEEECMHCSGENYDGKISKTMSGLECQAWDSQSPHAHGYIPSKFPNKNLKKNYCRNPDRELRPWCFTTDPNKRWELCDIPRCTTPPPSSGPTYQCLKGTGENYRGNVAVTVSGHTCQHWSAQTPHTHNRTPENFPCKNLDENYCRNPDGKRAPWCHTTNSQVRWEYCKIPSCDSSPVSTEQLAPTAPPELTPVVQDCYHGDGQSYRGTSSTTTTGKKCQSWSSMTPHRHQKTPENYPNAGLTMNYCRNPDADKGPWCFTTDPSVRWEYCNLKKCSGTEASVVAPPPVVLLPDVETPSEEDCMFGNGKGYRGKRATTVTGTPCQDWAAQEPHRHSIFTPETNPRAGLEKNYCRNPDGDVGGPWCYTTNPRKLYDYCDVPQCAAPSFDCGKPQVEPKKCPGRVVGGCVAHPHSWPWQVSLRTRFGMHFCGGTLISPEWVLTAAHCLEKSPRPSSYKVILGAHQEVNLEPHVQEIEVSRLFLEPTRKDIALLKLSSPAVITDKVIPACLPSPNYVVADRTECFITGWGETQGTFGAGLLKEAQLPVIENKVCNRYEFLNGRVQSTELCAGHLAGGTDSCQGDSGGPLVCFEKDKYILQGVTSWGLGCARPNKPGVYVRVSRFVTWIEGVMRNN
The scale used: pKi is minus the common logarithm of the concentration in molar units.

>>> measurement("R29A KD1 (other, Point mutant of His-tagged KD1, KD1 numbering; also called R29A (R20A); not shown: N-terminal decahistidine-tag leader and enterokinase cleavage site from pET19b) DAAQEPTGNNAEICLLPLDYGPCRALLLAYYYDRYTQSCRQFLYGGCEGNANNFYTWEACDDACWRIEKVPKV")
7.92
>>> measurement("recombinant human tissue factor pathway inhibitor-2 (TFPI-2), full-length (other, Eukaryotically expressed recombinant full-length protein, described as a 213 amino acid polypeptide and prepared by a published method (Sprecher et al.); also called full-length TFPI-2; intact TFPI-2) DAAQEPTGNNAEICLLPLDYGPCRALLLRYYYDRYTQSCRQFLYGGCEGNANNFYTWEACDDACWRIEKVPKVCRLQVSVDDQCEGSTEKYFFNLSSMTCEKFFSGGCHRNRIENRFPDEATCMGFCAPKKIPSFCYSPKDEGLCSANVTRYYFNPRYRTCDAFTYTGCGGNDNNFVSREDCKRACAKALKKKKKMPKLRFASRIRKIRKKQF")
8.05
>>> measurement("wild-type first Kunitz-type domain (KD1) of human TFPI-2, His-tagged, E. coli (other, the monomer was purified; also called wild-type KD1; TFPI-2 KD1; not shown: N-terminal decahistidine-tag leader and enterokinase cleavage site from pET19b) DAAQEPTGNNAEICLLPLDYGPCRALLLRYYYDRYTQSCRQFLYGGCEGNANNFYTWEACDDACWRIEKVPKV")
8.52

# input for lookup
Lab note: measured pKi of L26Q KD1 (other, Point mutant of His-tagged KD1, KD1 numbering; also called L26Q (L17Q); not shown: N-terminal decahistidine-tag leader and enterokinase cleavage site from pET19b) DAAQEPTGNNAEICLLPLDYGPCRAQLLRYYYDRYTQSCRQFLYGGCEGNANNFYTWEACDDACWRIEKVPKV was 7.54
